- System: Punta Toro virus
- experiment: Antiviral activity against Punta Toro virus-induced cytopathogenicity in Vero cells
- Type: functional
readoutKind: MIC

What measured MIC goes with NC(=O)c1ncn([C@@H]2O[C@H](CO)[C@@H](O)[C@H]2O)n1 [RIBAVIRIN] ?
300 µM

What measured MIC goes with O=C1O/C(=C\Cn2cc(C#Cc3ccccc3)c(=O)[nH]c2=O)C(OCc2ccccc2)=C1OCc1ccccc1 ?
> 200 µM

What measured MIC goes with C#Cc1cn(C/C=C2\OC(=O)C(OCc3ccccc3)=C2OCc2ccccc2)c(=O)[nH]c1=O ?
> 18 µM

What measured MIC goes with O=C1O/C(=C\Cn2cc(-c3ccco3)c(=O)[nH]c2=O)C(O)=C1O ?
> 100 µM

What measured MIC goes with O=C1O/C(=C\Cn2cc(-c3ccc(Br)o3)c(=O)[nH]c2=O)C(OCc2ccccc2)=C1OCc1ccccc1 ?
> 70 µM

What measured MIC goes with O=C1O/C(=C(\Br)Cn2c(Br)c(/C=C/Br)c(=O)[nH]c2=O)C(OCc2ccccc2)=C1OCc1ccccc1 ?
> 116 µM

What measured MIC goes with O=C1O/C(=C\Cn2cc(-c3cccs3)c(=O)[nH]c2=O)C(OCc2ccccc2)=C1OCc1ccccc1 ?
> 156 µM

What measured MIC goes with O=C1O/C(=C\Cn2cc(-c3ccccc3)c(=O)[nH]c2=O)C(O)=C1O ?
> 100 µM

What measured MIC goes with CC(C)=CCc1cn(C/C=C2\OC(=O)C(OCc3ccccc3)=C2OCc2ccccc2)c(=O)[nH]c1=O ?
4 µM

What measured MIC goes with C=CCc1cn(C/C=C2\OC(=O)C(OCc3ccccc3)=C2OCc2ccccc2)c(=O)[nH]c1=O ?
> 40 µM

What measured MIC goes with C#Cc1cn(C/C=C2\OC(=O)C(O)=C2O)c(=O)[nH]c1=O ?
4 µM

What measured MIC goes with O=C1O/C(=C\Cn2cc(-c3ccc(Cl)o3)c(=O)[nH]c2=O)C(OCc2ccccc2)=C1OCc1ccccc1 ?
> 150 µM

What measured MIC goes with Nc1ncnc2c1ncn2C[C@H](O)CO [(S)-DHPA] ?
300 µM

What measured MIC goes with O=C1O/C(=C\Cn2cc(/C=C/Br)c(=O)[nH]c2=O)C(OCc2ccccc2)=C1OCc1ccccc1 ?
> 150 µM

What measured MIC goes with C=C=Cc1cn(C/C=C2\OC(=O)C(OCc3ccccc3)=C2OCc2ccccc2)c(=O)[nH]c1=O ?
> 200 µM

What measured MIC goes with O=C1O/C(=C\Cn2cc(-c3ccco3)c(=O)[nH]c2=O)C(OCc2ccccc2)=C1OCc1ccccc1 ?
> 6.4 µM

What measured MIC goes with CC#Cc1cn(C/C=C2\OC(=O)C(OCc3ccccc3)=C2OCc2ccccc2)c(=O)[nH]c1=O ?
> 1.6 µM

What measured MIC goes with C=Cc1cn(C/C=C2\OC(=O)C(O)=C2O)c(=O)[nH]c1=O ?
> 29 µM

What measured MIC goes with C=Cc1cn(C/C=C2\OC(=O)C(OCc3ccccc3)=C2OCc2ccccc2)c(=O)[nH]c1=O ?
> 18 µM

What measured MIC goes with O=C1O/C(=C\Cn2cc(C#Cc3ccccc3)c(=O)[nH]c2=O)C(O)=C1O ?
> 4 µM

What measured MIC goes with O=C1O/C(=C\Cn2cc(-c3ccccc3)c(=O)[nH]c2=O)C(OCc2ccccc2)=C1OCc1ccccc1 ?
> 157 µM

What measured MIC goes with O=C1O/C(=C\Cn2cc(-c3cccs3)c(=O)[nH]c2=O)C(O)=C1O ?
> 100 µM

What measured MIC goes with O=c1[nH]c(=O)n([C@H]2C[C@H](O)[C@@H](CO)O2)cc1/C=C/Br [BRIVUDINE] ?
> 500 µM
